FYI, the data here is from ChEMBL document CHEMBL5058577.

# Test system: HEK-293T
# ASSAY_PROTOCOL: Multiplex assay against HEK293T
# Assay type: toxicity, cell-based
# CONDITION_DETAILS: human, 12 h, 1 µM, compound concentration 1 uM, replicate 1
READOUT_TYPE: Population Hoechst High Intensity Objects (%)
Your answer should be a plain number; it is taken to be in %.

# annotated cases, reported Population Hoechst High Intensity Objects (%) shown
INSERT INTO measurements (compound, result_units, experimental_value) VALUES
  ('CCCCCC(O)/C=C/[C@H]1C(=O)CC(O)C1C/C=C\CCCC(=O)O (stereo partly specified)', '%', 8),
  ('COC[C@@H](c1ccc(C(F)(F)F)cc1)N1CCN(C2(C)CCN(C(=O)c3c(C)ncnc3C)CC2)C[C@@H]1C.O=C(O)/C=C\C(=O)O [VICRIVIROC MALEATE]', '%', 9),
  ('CCCCC(=O)N(Cc1ccc(-c2ccccc2-c2nnn[nH]2)cc1)[C@H](C(=O)O)C(C)C', '%', 9),
  ('NCCc1cn(S(=O)(=O)c2c(Cl)nc3sccn23)c2ccccc12.O=C(O)C(=O)O', '%', 7),
  ('Cl.N=C(N)NC(=O)Cc1c(Cl)cccc1Cl [GUANFACINE HYDROCHLORIDE]', '%', 7);

// switching to the query compound
Lookup: Population Hoechst High Intensity Objects (%) / HEK-293T / CC(=O)Nc1cccc2c1c(Sc1ccc(Cl)cc1)c(C)n2CC(=O)O [AZD1981]
6
